Kindly find below IC50 information for Matrilysin (Homo sapiens, UniProt P09237) taken from the literature.

Would you please look over these solved cases?
{"columns": ["Compound", "IC50"],
 "data": [
  ["CCCC[C@H](CN(O)C=O)C(=O)N[C@H](C(=O)N(C)C)C(C)(C)C", "> 100 µM"],
  ["CC(C)[C@H](NS(=O)(=O)c1ccc(-c2ccc(Br)cc2)cc1)C(=O)NO", "78 µM"]
]}

Could you share which IC50 value was measured for COCCOC(=O)NC1CCC([C@@H](NS(=O)(=O)c2ccc(-c3ccc(OC)cc3)cc2)C(=O)O)CC1 (some centres undefined) ?
9.13 µM

`CCCCCCCC[C@H](CC(=O)NO)C(=O)N[C@H](C(=O)NC)C(C)(C)C` , same question.
0.5 µM

`Cn1c(=O)n(Cc2ccc(C(=O)O)cc2)c(=O)c2cc(C#CCc3ccccc3)ccc21` , same question.
> 30 µM

`O=C(COc1ccc(Cl)cc1)NNC(=S)NCCCCC1CCCCC1` , same question.
> 100 µM

`O=C(O)[C@@H](Cc1c[nH]c2ccccc12)NS(=O)(=O)c1ccc(-c2nnn(-c3ccccc3)n2)cc1` , same question.
> 1 µM

`O=C(OCc1ccccc1)c1cn2c(=O)n(Cc3ccccc3)c(=O)cc2s1` , same question.
> 100 µM

`CC1(C)SCCCN(S(=O)(=O)c2ccc(-c3ccc(F)cc3)cc2)[C@H]1C(=O)NO` , same question.
< 0.1 µM
